For each entry below, report its Kd value.
Molecular target: HER2 extracellular domain (UniProt P04626 23-652)
Test: SPRi; 5 mM Mg2+; negative aptamer spots subtracted; Selection buffer: 10 mM HEPES, 120 mM NaCl, 5 mM MgCl2, 5 mM KCl; pH not stated; SPRi temperature not stated (50 uL/min, 50 or 100 nM HER2, BSA-blocked chip); cell assays at 37 C
Conditions: protein: commercial
One number for each entry, in nM.

// Kd lookup, key: ATTAAGAACCATCACTCTTCCAAATGGATATACGACTGGG (ssDNA, 5' hexyl-disulfide) [HeA2_1]
28.9

Continue with the binder presented below.
Which measured Kd value corresponds to TCTAAAAGGATTCTTCCCAAGGGGATCCAATTCAAACAGC (ssDNA, 5' hexyl-disulfide) [HeA2_3] ?
6.2
